src = ChEMBL document CHEMBL2169779

- method: Volume of distribution at steady state in Sprague-Dawley rat at 1 mg/kg, iv
- Type: ADME, organism-based
- Parameters: dose 1 mg/kg, route intravenous
- condition_label: in vivo, read-out: Vdss
outcome_measure: Vd (L/kg)

a. O=C(Nc1nc(-c2ccc(F)c(C(F)(F)F)c2)cs1)c1cnc(N2CCC(C(=O)O)CC2)c(Cl)c1
b. O=C(Nc1nc(-c2ccc(F)c(C(F)(F)F)c2)ns1)c1cnc(N2CCC(C(=O)O)CC2)c(Cl)c1
c. O=C(Nc1nc(-c2ccc(F)c(C(F)(F)F)c2)c(F)s1)c1cnc(N2CCC(C(=O)O)CC2)c(Cl)c1
// query // ascending sort on recorded Vd Returns: the labels arranged in the requested order.
// result b, c, a
